# assayed-target: CYP 2C9 (Homo sapiens)
# Sequence (P11712 whole entry): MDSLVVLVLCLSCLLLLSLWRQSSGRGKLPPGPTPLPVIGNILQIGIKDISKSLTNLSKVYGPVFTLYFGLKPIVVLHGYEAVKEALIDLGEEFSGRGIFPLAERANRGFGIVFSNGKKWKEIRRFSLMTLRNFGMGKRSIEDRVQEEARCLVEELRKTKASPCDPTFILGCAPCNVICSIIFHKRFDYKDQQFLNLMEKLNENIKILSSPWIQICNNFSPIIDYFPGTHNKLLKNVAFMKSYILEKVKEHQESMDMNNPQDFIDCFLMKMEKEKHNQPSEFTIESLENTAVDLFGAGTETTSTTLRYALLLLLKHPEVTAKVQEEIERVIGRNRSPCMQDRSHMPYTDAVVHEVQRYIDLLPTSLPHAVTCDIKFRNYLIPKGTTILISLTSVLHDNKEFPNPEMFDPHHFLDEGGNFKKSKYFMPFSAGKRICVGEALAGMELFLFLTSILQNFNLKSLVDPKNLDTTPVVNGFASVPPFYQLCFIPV
# experiment-summary: CYP inhibition 2C9
# Format: in vitro ADME

| compound | IC50 |
| --- | --- |
| CC(C)(C(=O)O)c1ccc(Nc2nc(C(F)(F)F)cs2)cc1 [DF2726A] | > 30 µM |

---

# assayed-target: CYP 1A2 (Homo sapiens, UniProt P05177)
# Sequence (P05177 whole entry): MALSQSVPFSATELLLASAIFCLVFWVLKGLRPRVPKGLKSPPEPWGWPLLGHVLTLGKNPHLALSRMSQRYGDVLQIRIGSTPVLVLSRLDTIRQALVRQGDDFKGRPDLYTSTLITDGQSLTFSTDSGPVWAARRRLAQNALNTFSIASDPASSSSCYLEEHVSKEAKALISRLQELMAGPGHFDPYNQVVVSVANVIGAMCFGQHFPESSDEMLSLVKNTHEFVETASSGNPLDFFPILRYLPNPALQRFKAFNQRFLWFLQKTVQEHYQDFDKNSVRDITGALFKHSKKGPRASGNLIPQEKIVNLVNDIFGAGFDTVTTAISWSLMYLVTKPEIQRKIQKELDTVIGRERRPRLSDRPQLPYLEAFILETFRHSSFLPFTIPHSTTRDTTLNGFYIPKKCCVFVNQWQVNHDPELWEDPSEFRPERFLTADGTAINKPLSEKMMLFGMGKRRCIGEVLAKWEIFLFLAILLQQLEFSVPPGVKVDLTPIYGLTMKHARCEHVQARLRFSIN
# Assay type: in vitro ADME

| compound | IC50 |
| --- | --- |
| CC(C)(C(=O)O)c1ccc(Nc2nc(C(F)(F)F)cs2)cc1 [DF2726A] | > 30 µM |

---

# Tested on: CYP 1A2
# Assay type: in vitro ADME

| molecule | IC50 |
| --- | --- |
| CC(C)(C(=O)O)c1ccc(Nc2nc(C(F)(F)F)cs2)cc1 [DF2726A] | > 100 µM |

---

# System: CXCL1-induced hPMN chemotaxis
# experiment-summary: CXCL1-induced hPMN chemotaxis, 48-well microchemotaxis chamber
# Assay type: cell-based, human
# details: hPMN pre-incubated 15 min at 37°C, migration 45 min
pIC50: −log10 of the molar value.

| compound | pIC50 |
| --- | --- |
| CC(C)(C(=O)O)c1ccc(Nc2nc(C(F)(F)F)cs2)cc1 [DF2726A] | 8.10 |

---

# assayed-target: CYP 2C19 (Homo sapiens, UniProt P33261)
# Sequence (P33261 whole entry): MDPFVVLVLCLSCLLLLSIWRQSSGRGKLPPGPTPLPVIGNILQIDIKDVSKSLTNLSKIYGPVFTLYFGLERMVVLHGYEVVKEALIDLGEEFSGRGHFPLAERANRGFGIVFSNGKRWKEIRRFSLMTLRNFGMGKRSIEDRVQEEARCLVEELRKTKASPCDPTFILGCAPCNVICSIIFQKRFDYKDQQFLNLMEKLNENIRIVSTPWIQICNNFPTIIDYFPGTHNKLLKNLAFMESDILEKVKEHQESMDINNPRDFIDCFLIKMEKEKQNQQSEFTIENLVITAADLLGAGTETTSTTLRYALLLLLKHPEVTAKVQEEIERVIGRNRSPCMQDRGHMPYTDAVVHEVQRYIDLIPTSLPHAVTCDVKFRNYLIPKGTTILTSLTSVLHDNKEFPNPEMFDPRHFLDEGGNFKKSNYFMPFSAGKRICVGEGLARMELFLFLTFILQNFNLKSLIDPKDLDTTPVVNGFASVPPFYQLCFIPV
# experiment-summary: CYP inhibition 2C19
# Format: in vitro ADME
pIC50: −log10 of the molar value.

| compound | assayed-target | pIC50 |
| --- | --- | --- |
| CC(C)(C(=O)O)c1ccc(Nc2nc(C(F)(F)F)cs2)cc1 [DF2726A] | CYP 2C19 (Homo sapiens, UniProt P33261) | < 4.52 |

---

# System: IL-8-induced hPMN chemotaxis
# details: read-out: IC50 (CXCL8 / IL-8-induced hPMN chemotaxis); hPMN pre-incubated 15 min at 37°C, migration 45 min
measure: IC50

| compound | value-observed |
| --- | --- |
| CC(C)(C(=O)O)c1ccc(Nc2nc(C(F)(F)F)cs2)cc1 [DF2726A] | 10 nM |

---

# assayed-target: CYP 3A4 (Homo sapiens)
# Sequence (P08684 whole entry): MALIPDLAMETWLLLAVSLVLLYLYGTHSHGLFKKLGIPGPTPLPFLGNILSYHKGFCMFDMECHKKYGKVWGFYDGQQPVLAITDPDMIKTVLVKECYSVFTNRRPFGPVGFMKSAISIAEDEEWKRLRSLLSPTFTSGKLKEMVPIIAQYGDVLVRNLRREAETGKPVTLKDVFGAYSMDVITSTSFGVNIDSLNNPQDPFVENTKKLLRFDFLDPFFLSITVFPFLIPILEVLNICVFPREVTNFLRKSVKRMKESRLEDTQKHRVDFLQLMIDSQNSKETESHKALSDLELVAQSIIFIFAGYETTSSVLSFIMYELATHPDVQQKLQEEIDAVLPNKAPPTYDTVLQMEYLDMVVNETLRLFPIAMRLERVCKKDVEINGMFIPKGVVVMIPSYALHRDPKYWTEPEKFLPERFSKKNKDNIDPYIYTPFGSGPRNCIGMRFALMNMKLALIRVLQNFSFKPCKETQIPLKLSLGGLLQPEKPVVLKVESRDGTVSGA
# experiment-summary: CYP inhibition 3A4
# Type: in vitro ADME

| molecule | IC50 |
| --- | --- |
| CC(C)(C(=O)O)c1ccc(Nc2nc(C(F)(F)F)cs2)cc1 [DF2726A] | > 30 µM |
